B1: PDS5B (parent)
chain: ITYPPGVKEISDKISKEEMVRRLK

variants of: B1; experiment: protein stability index of a GFP-peptide fusion (GPS, HEK-293T) (PSI 1-6); higher = more stable; details: c terminus: a fixed tail appended;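 note: lentivirally expressed fusions sorted by FACS into six bins by GFP to DsRed ratio, PSI derived from sequencing read proportions per bin multiplied by bin number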
Measure: protein stability index
# print the numeric value only

• R22A = 3.76

Q: Value lookup for protein stability index; key = K24F
A: 2.48

Q: Value lookup for protein stability index; key = Y3S
A: 4.43

Q: Value lookup for protein stability index; key = D12T
A: 3.69

Q: Value lookup for protein stability index; key = K24M
A: 3.11
